target: SARS-COV-2 Spike protein receptor binding domain (amino acids Arg319-Phe541) expressed with the Fc p (SARS-CoV-2)
QUANTITY NAME: IC50 (nM)
State just the number; it will be interpreted in nM.

>>> recorded_measurement("mAb10998 (antibody, V domains shown) VH: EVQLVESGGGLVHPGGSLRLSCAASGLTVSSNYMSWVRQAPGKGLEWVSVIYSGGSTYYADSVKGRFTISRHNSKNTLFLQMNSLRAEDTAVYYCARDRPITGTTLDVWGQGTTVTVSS VL: DIQMTQSPSSLFASVGDRVTITCRASQSISSYLNWYQQKPGKAPKLLIYAASSLQSGVPSRFSGSGSGTDFTLTISSLQPEDFAFYYCQQTYSTPPITFGQGTRLEIKR")
4.3

Data request: So what does the record say about IC50 for mAb10971 (antibody, V domains shown) VH: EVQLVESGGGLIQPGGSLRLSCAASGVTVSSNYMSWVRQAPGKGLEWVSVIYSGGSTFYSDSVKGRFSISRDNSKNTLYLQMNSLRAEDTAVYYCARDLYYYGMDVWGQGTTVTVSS VL: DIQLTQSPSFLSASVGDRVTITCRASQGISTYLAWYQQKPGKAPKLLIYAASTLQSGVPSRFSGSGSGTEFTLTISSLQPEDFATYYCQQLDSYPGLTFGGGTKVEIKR ?
Data returned: 0.149

Data request: For mAb10954 (antibody, V domains shown) VH: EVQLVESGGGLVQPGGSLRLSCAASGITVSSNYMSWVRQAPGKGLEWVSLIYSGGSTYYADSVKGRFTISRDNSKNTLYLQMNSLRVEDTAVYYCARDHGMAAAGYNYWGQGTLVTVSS VL: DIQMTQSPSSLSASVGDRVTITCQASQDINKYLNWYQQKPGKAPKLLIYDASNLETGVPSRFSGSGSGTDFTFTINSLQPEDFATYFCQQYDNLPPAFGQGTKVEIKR then?
Data returned: 0.0711

Data request: For mAb10982 (antibody, V domains shown) VH: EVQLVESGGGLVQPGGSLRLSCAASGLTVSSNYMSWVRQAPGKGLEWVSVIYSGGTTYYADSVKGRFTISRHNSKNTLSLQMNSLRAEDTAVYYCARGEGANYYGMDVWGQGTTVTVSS VL: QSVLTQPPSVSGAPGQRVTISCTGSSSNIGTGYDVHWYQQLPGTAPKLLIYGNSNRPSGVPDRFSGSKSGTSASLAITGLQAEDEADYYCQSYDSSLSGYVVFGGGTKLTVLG then?
Data returned: 0.116
